- TEST_DETAILS: Inhibition of TGF-beta (unknown origin)
pIC50: −log10 of the molar value.
pIC50 listing for selected compounds.

STRUCTURE_SMILES_STRING | pIC50
O=c1[nH]cc(-c2cccc(CO)c2)cc1-c1nc2cc(N3CCNCC3)ccc2[nH]1 | 6.01
CCc1cnn(-c2cccc(C)n2)c1-c1cc2cnccc2s1 | 8.37
CC(=O)Nc1cc(Nc2nc(-c3ccc(F)c(C)n3)nc3[nH]cnc23)ccn1 | 9.47
